Some molecules, each annotated with its measured concentration.
Protocol summary: Drug uptake in Sprague-Dawley rat CSF at 10 mg/kg, po
Type: ADME, organism-based, Cerebrospinal fluid
Parameters: dose 10 mg/kg, route oral
Condition info: in vivo, read-out: Drug uptake
Measured metric: concentration

> print(dat)
                                   molecule  test.value
1  O=C(O)c1cc(CN2CCc3cc(Cl)ccc3C2)c2ccccn2c1=O    0.086 µM
2  O=C(O)c1cc(CN2CCc3ccccc3C2c2ccncc2)c2ccccn2c1=O (stereo not drawn)     0.23 µM
3  Cc1ccc(C2CCN(Cc3cc(C(=O)O)c(=O)n4ccccc34)CC2)cc1    0.028 µM
